test: pharmacokinetics and biodistribution in BT-474 tumor-bearing mice (HPLC/MS-MS)
Format: in vivo
measurement-parameters: female, athymic, mouse, lung, intravenous, 30 mg/kg; read-out: tissue exposure over 48 hours relative to plasma
experimental-readout: Kp

| compound | number |
| --- | --- |
| CCNC(=O)c1noc(-c2cc(C(C)C)c(O)cc2O)c1-c1ccc(CN2CCOCC2)cc1 [NVP-AUY922] | 10 |

----------
test: pharmacokinetics and biodistribution in BT-474 tumor-bearing mice (HPLC/MS-MS)
Type: in vivo
measurement-parameters: female, athymic, mouse, liver, lung, heart, muscle, iv, 30 mg/kg, liver, lung, heart, muscle; read-out: terminal elimination half-life from non-tumor tissues

| molecule | half-life |
| --- | --- |
| CCNC(=O)c1noc(-c2cc(C(C)C)c(O)cc2O)c1-c1ccc(CN2CCOCC2)cc1 [NVP-AUY922] | 5.5 to 8 h |

----------
test: pharmacokinetics and biodistribution in BT-474 tumor-bearing mice (HPLC/MS-MS)
Type: in vivo
measurement-parameters: female, athymic, mouse, plasma, iv, 30 mg/kg, based on the last three time points; read-out: apparent terminal elimination half-life in plasma (converted)

| compound | readout-units | half-life |
| --- | --- | --- |
| CCNC(=O)c1noc(-c2cc(C(C)C)c(O)cc2O)c1-c1ccc(CN2CCOCC2)cc1 [NVP-AUY922] | min | 600 |

----------
test: pharmacokinetics and biodistribution in BT-474 tumor-bearing mice (HPLC/MS-MS)
Assay type: in vivo
measurement-parameters: female, athymic, mouse, muscle, intravenous, 30 mg/kg; read-out: tissue exposure over 48 hours relative to plasma

| smi | Kp |
| --- | --- |
| CCNC(=O)c1noc(-c2cc(C(C)C)c(O)cc2O)c1-c1ccc(CN2CCOCC2)cc1 | 5 |

----------
test: pharmacokinetics and biodistribution in BT-474 tumor-bearing mice (HPLC/MS-MS)
Format: in vivo
measurement-parameters: female, athymic, mouse, heart, intravenous, 30 mg/kg; read-out: tissue exposure over 48 hours relative to plasma

| smi | Kp |
| --- | --- |
| CCNC(=O)c1noc(-c2cc(C(C)C)c(O)cc2O)c1-c1ccc(CN2CCOCC2)cc1 | 5 |

----------
test: pharmacokinetics and biodistribution in BT-474 tumor-bearing mice (HPLC/MS-MS)
Format: in vivo
measurement-parameters: female, athymic, mouse, muscle, iv, 30 mg/kg, muscle; 30 mg/kg single i.v.; read-out: T 1/2 elimination λ_z (converted)
experimental-readout: half-life (h)

| smi | readout-units | number |
| --- | --- | --- |
| CCNC(=O)c1noc(-c2cc(C(C)C)c(O)cc2O)c1-c1ccc(CN2CCOCC2)cc1 | h | 8 |

----------
test: pharmacokinetics and biodistribution in BT-474 tumor-bearing mice (HPLC/MS-MS)
Assay type: in vivo
measurement-parameters: female, athymic, mouse, liver, intravenous, 30 mg/kg; read-out: tissue exposure over 48 hours relative to plasma
Experimental: At various time points, mice (n = 4) were sacrificed and blood and tissues (tumor, liver, lung, heart, and muscles) were dissected. […] Concentrations of unknown samples were calculated from the peak area ratio of the product ion of the analytes to the product ion of its internal standard (ordinate) against the nominal concentration (abscissa). […]

| smi | Kp |
| --- | --- |
| CCNC(=O)c1noc(-c2cc(C(C)C)c(O)cc2O)c1-c1ccc(CN2CCOCC2)cc1 | 7 |
